Tested on: HeLa
assay-remarks: Cell cycle arrest in human HeLa cells assessed as accumulation at G2/M phase at 4 uM after 48 hrs by propidium iodide staining-based flow cytometric analysis (reference value: 19%)
Recorded Activity values for a group of compounds are listed next.
The response must be a number in % with no trailing unit.

| compound-smiles | Activity, % |
| --- | --- |
| COc1cc2nc(C)n(-c3ccccc3Cn3cc(-c4ccc(C)cc4)nn3)c(=O)c2cc1OC | 17 |
| COc1cc2nc(C)n(-c3ccccc3Cn3cc(-c4ccccn4)nn3)c(=O)c2cc1OC | 19 |

Req: Dear colleague, I am looking for the recorded Activity of the following compound: O=c1c2ccccc2nc2n1Cc1cc3ccccc3nc1-2
Resp: 17

Req: Sample COc1cc2nc(C)n(-c3ccccc3Cn3cc(S)nn3)c(=O)c2cc1OC — what was its Activity?
Resp: 20

Req: I am curious: what Activity value has been reported for COc1ccc2cc(-c3cn(Cc4ccccc4-n4c(C)nc5ccccc5c4=O)nn3)ccc2c1 ?
Resp: 17

Req: Give the measured Activity of Cc1nc2ccccc2c(=O)n1-c1ccccc1Cn1cc(-c2ccccc2)nn1 .
Resp: 15

Req: Using the record for Cc1nc2ccccc2c(=O)n1-c1ccccc1Cn1cc(S)nn1 , report its Activity.
Resp: 21

Attribution: ChEMBL document CHEMBL3414548
